# Tested on: Fibrinogen (Alexa647-labelled)
# protocol_description: fibrinogen binders on compound microarrays, profiling panel, artefact control for SMM control-protein annotation, biochemical, small-molecule microarray, 635/667 nm fluorescence (AID 1131);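 also: z-score merges 667 nm fluorescence with per-spot signal-to-noise over triplicate slides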
# run_conditions: fibrinogen-A647 binding fluorescence, higher = more signal
value_kind: composite z-score
Give the figure only, with no unit attached.

molecule `O=C(NN=C1C[C@@H](O)[C@@H](O)[C@@H]2[C@@H]3C(=O)N(c4cccc(Oc5ccccc5)c4)C(=O)[C@@H]3CC[C@@H]12)OCc1ccccc1` , composite z-score observed: 0.81

Kindly note the recorded composite z-score for `CO[C@@H]1COC(=O)CC=C[C@@H](C)[C@H](OC)COC(=O)[C@H](COCc2ccccc2)NC(=O)CC=C[C@H]1C` , which is -1.21

Consider `COc1ccc(-c2nc3c(c4c2C[C@H](C)OC4)CN(CCC(C)C)CC3)cc1` . Its measured composite z-score is 0.809

Short answer for `[N-]=[N+]=NCc1ccccc1C[C@]1(C(=O)NCc2ccccc2)N=C(c2ccc(OCCCO)cc2)O[C@H]1c1ccccc1N=[N+]=[N-]` : composite z-score was 0.967

The recorded composite z-score for entry `CCN1C(=O)[C@H]2[C@H]3[C@H](O)[C@H](O)CC(=NOC[C@@H](C)[C@H](OCc4ccccc4)C(C)C)[C@@H]3CC[C@H]2C1=O` equals 0.58

Entry under test: `CCCCCCc1nc(CCCc2cc3c(c(CCCCCC)n2)[Si](C(C)C)(C(C)C)O[C@H]3c2ccccc2)cc2c1[Si](C(C)C)(C(C)C)O[C@H]2c1ccccc1` . Its composite z-score was -1.19

composite z-score reported for this molecule COC(=O)CC1OC1[C@H](C)[C@@H](OC)C(C)C (some centres not stated) : 0.745

###

# Tested on: Plasmodium falciparum Sir2 (PF13_0152, Sir2A)
# protocol_description: pfSir2 binders on small-molecule microarrays, primary screen, biochemical, small-molecule microarray, 635 nm fluorescence (AID 1098);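 also: score merges spot fluorescence intensity with its signal-to-noise ratio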
# run_conditions: small-molecule microarray binding, fluorescence 635 nm; higher = more signal
value_kind: composite z-score
Reply with the value as a number alone.

Data point: `CCCCC(=C=CC[C@H](O)c1ccccc1OCCO)C[C@H](O)COCc1ccccc1` ; composite z-score = 1.45

composite z-score reading for `COCCCNC(=O)[C@@]1(CCS(=O)(=O)c2ccccc2)N=C(c2ccc(OCCCO)cc2)O[C@H]1c1ccccc1` : 1.69

composite z-score for `C=C(/C(=C/C[C@H](OC(=O)c1ccncc1)c1ccc(OCCO)cc1)c1cnc2ccccc2c1)C(C)C` is 0.933

Briefly, composite z-score measured for `CC(C)NC(=O)[C@@]1(C)c2ccccc2C(=O)N(Cc2cc(F)cc(C(F)(F)F)c2)[C@H]1c1ccc(CO)cc1` : 0.442

What the record says about `CC(C)=C1C(=O)C(c2ccccc2)=C2CN3C(=O)N(CCc4ccccc4)C(=O)[C@]3(Cc3ccc(F)cc3)[C@H]21` : composite z-score is -0.0467

Form field composite z-score, entry `CN(C)CCCNC(=O)[C@@H]1c2ccccc2C(=O)N(Cc2cc(F)cc(C(F)(F)F)c2)[C@H]1c1ccc(CO)cc1` : 1.75

Looking up `COC(=O)[C@H](C)NC(=O)[C@@H](C)CO` , I see its composite z-score listed as 0.241

Summary for this compound, `CCc1cc2c(nc1CC)CCN(CCC(C)=NO[C@@H](C)c1cc(-c3c(C)cc(C)cc3C)no1)C2` : composite z-score is 0.856

The reported measurements were obtained from PubChem BioAssay.
